Origin of measurements: patent US20250326839A1

Target: T1, human TREM2 (human, UniProt Q9NZC2 19-174, limits assumed)
T1 construct: also called triggering receptor expressed on myeloid cells 2
T1 sequence: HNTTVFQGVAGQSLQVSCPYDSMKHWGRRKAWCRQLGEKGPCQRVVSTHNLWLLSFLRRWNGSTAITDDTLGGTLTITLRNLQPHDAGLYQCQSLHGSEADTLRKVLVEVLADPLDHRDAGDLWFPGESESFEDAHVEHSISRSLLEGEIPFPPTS
Experiment: 2nd screen, 2 nM
Binding Signal values, listed per item
READOUT NAME: Binding Signal

{"BINDER": "V60 (antibody, V domains shown, also called 6E7 variant V60; LV-108/HV-108) VH: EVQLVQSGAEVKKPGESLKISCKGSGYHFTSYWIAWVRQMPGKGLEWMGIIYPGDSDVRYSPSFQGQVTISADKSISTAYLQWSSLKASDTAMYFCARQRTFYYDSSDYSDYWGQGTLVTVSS VL: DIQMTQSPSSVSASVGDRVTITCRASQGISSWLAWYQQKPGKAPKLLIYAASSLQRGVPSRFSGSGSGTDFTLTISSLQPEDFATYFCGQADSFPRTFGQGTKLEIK", "ENDPOINT RESULT": "3.35 fold over 6E7 parental antibody"}
{"BINDER": "V64 (antibody, V domains shown, also called 6E7 variant V64) VH: EVQLVQSGAEVKKPGESLKISCKGSGYSFQSYWIAWVRQMPGKGLEWMGIIYPGDSDTRYSPSFQGQVTISADKSISTAYLQWSSLKASDTAMYFCARGRTFYYDSSDYFDYWGQGTLVTVSS VL: DIQMTQSPSSVSASVGDRVTITCRASQGISSWLAWYQQKPGKAPKLLIYAASSLANGVPSRFSGSGSGTDFTLTISSLQPEDFATYFCQQADSYPRTFGQGTKLEIK", "ENDPOINT RESULT": "4.88 fold over 6E7 parental antibody"}
{"BINDER": "V27 (antibody, V domains shown, also called 6E7 variant V27; LV-103/HV-103) VH: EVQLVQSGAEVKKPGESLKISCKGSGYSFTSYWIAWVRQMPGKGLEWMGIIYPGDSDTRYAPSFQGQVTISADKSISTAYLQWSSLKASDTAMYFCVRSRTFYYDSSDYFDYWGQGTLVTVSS VL: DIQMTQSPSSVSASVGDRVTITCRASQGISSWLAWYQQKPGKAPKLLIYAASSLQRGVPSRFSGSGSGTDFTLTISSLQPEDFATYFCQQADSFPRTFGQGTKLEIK", "ENDPOINT RESULT": "5.67 fold over 6E7 parental antibody"}
